molecular target: NAALAD-ase I (Homo sapiens, UniProt Q04609, Y75H); assay: [3H]-NAAG hydrolysis assay, membranes of COS cells transiently transfected with NAALAD-ase I; format: biochemical; design: expressed in transfected cells; host or cells: COS cells, transient, pcDNA-3 (CMV promoter); details: IC50, inhibition of NAALAD-ase I activity, 500 nM [3H]-NAAG, 37° C., 30 min, anion exchange column readout (FIG. 9C)
Sequence (Q04609 whole entry Y75H): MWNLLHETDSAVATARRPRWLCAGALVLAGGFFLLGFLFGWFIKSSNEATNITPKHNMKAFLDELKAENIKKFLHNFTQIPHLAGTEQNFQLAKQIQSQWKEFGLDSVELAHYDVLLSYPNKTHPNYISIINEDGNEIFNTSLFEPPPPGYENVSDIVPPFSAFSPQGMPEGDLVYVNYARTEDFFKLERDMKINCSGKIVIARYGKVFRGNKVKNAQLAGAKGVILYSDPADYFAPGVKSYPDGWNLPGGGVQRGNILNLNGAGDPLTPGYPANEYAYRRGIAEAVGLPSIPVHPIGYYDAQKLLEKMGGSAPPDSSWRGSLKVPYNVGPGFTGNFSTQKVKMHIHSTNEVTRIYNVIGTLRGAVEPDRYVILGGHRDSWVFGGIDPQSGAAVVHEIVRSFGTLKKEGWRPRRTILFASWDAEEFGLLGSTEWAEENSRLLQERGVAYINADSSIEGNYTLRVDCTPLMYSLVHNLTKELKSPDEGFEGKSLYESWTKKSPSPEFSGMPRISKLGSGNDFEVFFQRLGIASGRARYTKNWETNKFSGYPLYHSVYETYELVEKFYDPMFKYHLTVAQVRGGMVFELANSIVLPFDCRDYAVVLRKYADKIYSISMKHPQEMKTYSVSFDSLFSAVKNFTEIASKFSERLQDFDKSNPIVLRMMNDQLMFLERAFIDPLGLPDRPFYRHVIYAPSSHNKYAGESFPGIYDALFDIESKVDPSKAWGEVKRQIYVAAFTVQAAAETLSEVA
ASSAY_METRIC: IC50 (µM)
Expressed in µM, but write only the number.

Ask: Endpoint output: IC50 of N[C@@H](Cn1oc(=O)[nH]c1=O)C(=O)O [quisqualic acid] . Value?
Reply: 12

* * *

molecular target: NAALAD-ase I (Homo sapiens, UniProt Q04609, Y75H); test: [3H]-NAAG hydrolysis assay, membranes of COS cells transiently transfected with NAALAD-ase I; format: biochemical; design: expressed in transfected cells; host or cells: COS cells, transient, pcDNA-3 (CMV promoter); details: IC50 for NAALAD-ase I (discussion, rounded), recombinant preparation from COS cells, NAAG hydrolysis
ASSAY_METRIC: IC50

Ask: Requested read-out IC50, target or system NAALAD-ase I (Homo sapiens, UniProt Q04609, Y75H), entry N[C@@H](Cn1oc(=O)[nH]c1=O)C(=O)O
Reply: ~10 µM

* * *

target: NAALAD-ase I (Homo sapiens, UniProt Q04609, Y75H); assay: Scintillation proximity assay (SPA) of [3H]-NAAG hydrolysis, recombinant NAALAD-ase I membrane preparations; format: biochemical; design: expressed in transfected cells
ASSAY_METRIC: IC50 (nM)
Expressed in nM, but write only the number.

Ask: Endpoint output: IC50 of N[C@@H](Cn1oc(=O)[nH]c1=O)C(=O)O [quisqualic acid] . Value?
Reply: 1000

Data provenance is patent US7217555B1.
